Values compiled from ChEMBL document CHEMBL1201862.

tested on: OVCAR-4; experiment: NCI tumour cell line growth inhibition, 48 h
Calls of active or inactive are those of the source. Rule as the data show it: active = GI50 up to about 1.1 µM and inactive = higher.
Outcome field: choose from class 1 = active, class 0 = inactive

Field: example entries. Status: answers known.
compound	category_label
CCOC(=O)[C@]12C(=C(c3ccccc3)O[C@H]3C=CCC[C@H]31)C(=O)C(=O)N2c1ccccc1	class 0
CS(=O)(=O)OCCN1CCN(C(=O)c2cccc3c(Nc4ccc(S(N)(=O)=O)cc4)c4ccccc4nc23)CC1	class 0
Cc1ccccc1S(=O)(=O)OC1NS(=O)(=O)c2ccccc21 (configuration not stated)	class 0
C1CSCCSCCS1	class 0
CCCCN/C(=N/C#N)NCc1ccccc1	class 0
O=[N+]([O-])C1Cc2ccccc2OC1c1ccccc1 (configuration not stated)	class 0
O=C(Cc1nc2ccccc2s1)Nc1cccc(C(F)(F)F)c1	class 0
Nc1nc(S)nc(C(=O)Nc2ccc(Cl)c(Cl)c2)c1-c1ccc(Cl)cc1	class 0

Prompt: Kindly provide the recorded test outcome for the following compound: COC(=O)c1ccc(NCc2cc(O)c3ccccc3c2O)cc1
Response: class 0

Prompt: Kindly provide the recorded test outcome for the following compound: COC(=O)[C@H]1ON2O[C@H](OC3CCCC[C@@H]3c3ccccc3)C[C@@H]3CC[C@H]1[C@@]32C (some centres not stated)
Response: class 0

Prompt: Kindly provide the recorded test outcome for the following compound: O=C(O)C#Cc1ccc([N+](=O)[O-])cc1
Response: class 0

Prompt: Kindly provide the recorded test outcome for the following compound: COC(=O)CCC(=O)N1Cc2cc(C)ccc2N(C(=O)CCC(=O)OC)Cc2cc(C)ccc21
Response: class 0

Prompt: Kindly provide the recorded test outcome for the following compound: Cc1c(NC(=O)C(C)(C)Br)c(=O)oc2c(C)c3occc(=O)c3cc12
Response: class 0

Prompt: Kindly provide the recorded test outcome for the following compound: O=C1OS2(OC(=O)c3cccc4cccc2c34)c2ccccc21 (configuration not stated)
Response: class 0

Prompt: Kindly provide the recorded test outcome for the following compound: NC(=O)c1cc2ccccc2o/c1=N/c1ccccc1
Response: class 0

###

system: RXF 393; assay: NCI tumour cell line growth inhibition, 48 h
The source made the active and inactive calls. Rule as the data show it: active = GI50 up to about 1.1 µM and inactive = higher.
Outcome field: choose from yes (1) (active), no (0) (inactive)

> print(dat)
                                   compound  subject.of.test  category.label
1                   CC(=O)OCCc1cccnc1/C=N/O          RXF 393          no (0)
2    COc1ccc(Nc2nc(N)c(C(=O)c3ccccc3)s2)cc1          RXF 393         yes (1)
3  COC(=O)CCC(NC(=O)OC(C)(C)C)C(=O)NC(Cc1ccc(NC(=O)CCCC(C)=O)cc1)C(=O)NC(CCC(=O)OC)C(=O)OC (stereo not given)          RXF 393          no (0)
4  COc1cccc2c(=O)c3c(O)c4cc(N(C)C)ccc4c(OC(C)=O)c3oc12          RXF 393          no (0)

For the next question, use this compound.
Prompt: Kindly provide the recorded test outcome for the following compound: CN1CN(c2ccccc2)C2(CCN(CC(C)(c3ccc(F)cc3)C3OCCCO3)CC2)C1=O (stereo not given)
Response: no (0)

###

test system: CCRF-CEM; experiment: NCI tumour cell line growth inhibition, 48 h
Active and inactive are the calls of the source. No stated cut-off is given here; in the data, active = GI50 up to about 1.1 µM and inactive = higher.
Outcome field: choose from active, inactive

molecule	category_label
O=[N+]([O-])c1ccc2nc3n(c2c1)C(c1c(F)cccc1F)SC3 (stereo unspecified)	inactive
C=CSCCC(N)C(=O)O (stereo unspecified)	inactive
Nc1nc(N)c2nc(CN(C=O)c3ccc(C(=O)O)cc3)cnc2n1	inactive
O=c1oc2ccc3ccccc3c2cc1-c1nc2ccccc2s1	inactive

For the next question, use this molecule.
Prompt: Kindly provide the recorded test outcome for the following molecule: Cn1c(=O)c2c(ncn2CCCCOc2ccc3c(c2)[n+]([O-])nc(N)[n+]3[O-])n(C)c1=O
Response: inactive

###

system: LXFL 529; assay: NCI tumour cell line growth inhibition, 48 h
Activity calls are given as the source filed them. Cut-off read from the data, not from the text of the source: active = GI50 up to about 1.1 µM and inactive = higher.
outcome_measure: GI50

> print(dat)
                                   compound  outcome.measure               result
1  CCc1cc(C)cc2[n+]1CC=C2.[O-][Cl+3]([O-])([O-])[O-]             GI50   4.17 µM (inactive)
2                    N/C(S)=N/N=C/c1ncccc1O             GI50   2.75 µM (inactive)
3  CCCCCCCCCC1CC(=O)OC2=C1C(=O)CCC2 (configuration not stated)             GI50  > 100 µM (inactive)
4  O=[N+]([O-])C1Cc2ccccc2OC1c1ccccc1 (configuration not stated)             GI50  > 100 µM (inactive)
5                   CC(=O)OCCc1cccnc1/C=N/O             GI50  > 100 µM (inactive)
6      CCOC(=O)Cn1c(=O)[nH]c(=O)c2[nH]cnc21             GI50  > 100 µM (inactive)

// switching to the query compound
The recorded GI50 for Cn1cc2ccccc2c1-c1nc(F)nc(Oc2ccc3c(c2)CC[C@@H]2C3CC[C@@]3(C)C2CC[C@@H]3O)n1 (some centres not stated) is 3.71 µM (inactive)

###

Quick list: GI50 per entry.
test system: BT-549; assay: NCI tumour cell line growth inhibition, 48 h
Calls of active or inactive are those of the source. No stated cut-off is given here; in the data, active = GI50 up to about 1.1 µM and inactive = higher.

Please review the following examples before continuing.
> print(dat)
                                   compound  outcome.measure              result
1  Brc1ccc2[nH]cc([C@@H]3CN[C@@H](c4c[nH]c5ccc(Br)cc45)CN3)c2c1             GI50  14.8 µM (inactive)
2  O=C1CSC(c2ccccc2O)N1c1ccc(-n2c(-c3ccccc3)nc3ccccc3c2=O)cc1 (centres undefined)             GI50  21.6 µM (inactive)
3      CN(CCO)CC(=O)CC(O)(C(F)(F)F)C(F)(F)F             GI50  43.7 µM (inactive)

The recorded GI50 for O=C(O)C1CCCN1Cc1cc2ccccc2c2ccccc12 (centres undefined) is > 100 µM (inactive)

###

test system: NCI-H522; assay: NCI tumour cell line growth inhibition, 48 h
Calls of active or inactive are those of the source. Rule as the data show it: active = GI50 up to about 1.1 µM and inactive = higher.
Outcome field: choose from active, inactive

Field: example entries. Status: answers known.
compound	category_label
CCN(CC)CCCNc1ccc2nc(C)n3c4ccc(O)cc4c(=O)c1c23	active
Cc1c(C#N)c(N)[nH]c(=S)c1C#N	inactive
CSCCCNC(=O)c1csc(-c2csc(CCNC(=O)CNC(=O)CNC(=O)CNC(=O)OC(C)(C)C)n2)n1	inactive
O=C1OCOC2(CCCC2)C1c1ccccc1 (stereo unspecified)	inactive
Cc1cc(NS(=O)(=O)c2ccc(NC(=O)c3cccc4c(=O)c5ccccc5[nH]c34)cc2)no1	inactive

For the next question, use this compound.
Prompt: Kindly provide the recorded test outcome for the following compound: C=CC(C)(C)n1cc(C2=C(O)C(=O)C(c3cn(C(C)(C)C=C)c4ccccc34)=C(OC(C)=O)C2=O)c2ccccc21
Response: inactive

###

system: HCT-116; assay: NCI tumour cell line growth inhibition, 48 h
Calls of active or inactive are those of the source. Rule as the data show it: active = GI50 up to about 1.1 µM and inactive = higher.
Outcome field: choose from active, inactive

Field: example entries. Status: answers known.
> print(dat)
                                   molecule  category.label
1  CCC(NC(C)c1ccccc1)C(=O)c1ccc(OCc2ccccc2)c(OCc2ccccc2)c1 (stereo not given)        inactive
2  COc1ccc(-c2cc(=O)c3c(O)c(OC)c(OC)c(OC)c3o2)cc1        inactive
3  O=C(O)c1ccc(/C=N/N=C2c3ccccc3-c3ccccc32)cc1        inactive
4       Cc1nn(C)c(=O)c2nn(-c3ccccc3)c(C)c12        inactive
5          NC(=O)c1cc2ccccc2o/c1=N/c1ccccc1        inactive

Prompt: Kindly provide the recorded test outcome for the following molecule: Cc1nc2ccc(Cl)cc2c2c1CCS2
Response: inactive

Prompt: Kindly provide the recorded test outcome for the following molecule: CC(=O)OC/C=C(\C)CCC(Br)C(C)(C)Br (stereo not given)
Response: inactive

Prompt: Kindly provide the recorded test outcome for the following molecule: COc1cc(O)c(C(=O)/C=C/c2ccc(OC)c(OCc3ccccc3)c2)c(OC)c1
Response: inactive

Prompt: Kindly provide the recorded test outcome for the following molecule: CS(=O)(=O)OCCCOS(C)(=O)=O
Response: inactive

Prompt: Kindly provide the recorded test outcome for the following molecule: CC1(C)[C@@H]2C[C@H]1[C@@H](Cc1cccc(C[C@H]3c4cc(-c5ccccn5)ncc4[C@H]4C[C@@H]3C4(C)C)c1)c1cc(-c3ccccn3)ncc12
Response: active
